Assay remarks: Shh-driven Gli reporter inhibition – luminescence, Shh-LIGHT2 cells, Gli-luciferase, primary screen (AID 2313);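 further: pathway switched on by Shh-conditioned medium diluted 1 in 25 in low serum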
Measurement setup: 30 h
The campaign covered roughly 22,000 compounds. About 460 (2.1%) were called active. Inconclusive results (about 2%) are left out.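 How the source made its calls: active means mean inhibition across valid replicates above about 65% (limit read from the data); inconclusive means mean under the limit, yet half or more replicates past it; inactive means the rest.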 What follows is part of a selection rich in actives, with near analogues and random picks from the rest.
Outcome (select one): active, inactive

Here are 5 molecules together with their reported answers.
>>> answer_label("C[C@H]1CN([C@@H](C)CO)C(=O)Cc2cc(NS(=O)(=O)c3cccs3)ccc2O[C@H]1CN(C)Cc1ccncc1")
"inactive"
>>> answer_label("Cc1ccc(S(=O)(=O)Nc2ccc3c(c2)C(=O)N([C@H](C)CO)C[C@@H](C)[C@H](CN(C)Cc2ccccc2)O3)cc1")
"inactive"
>>> answer_label("Oc1ccc(CN2CCCC2)c2cccnc12")
"active"
>>> answer_label("COc1ccc(CN(C)C[C@H]2Oc3c(NS(=O)(=O)c4ccccc4)cccc3C(=O)N([C@H](C)CO)C[C@@H]2C)cc1")
"inactive"
>>> answer_label("C[C@@H]1CN([C@H](C)CO)C(=O)Cc2cc(NS(=O)(=O)c3ccc(Cl)cc3)ccc2O[C@@H]1CN(C)C")
"inactive"

Query: Recorded call for Cc1ccc(S(=O)(=O)Nc2ccc3c(c2)C(=O)N([C@@H](C)CO)C[C@H](C)[C@@H](CN(C)CC2CC2)O3)cc1 ?
Reply: inactive

Query: Recorded call for COc1ccc(CN(C)C[C@H]2OCCCC[C@@H](C)Oc3ccc(NC(=O)Nc4cccc5ccccc45)cc3C(=O)N([C@H](C)CO)C[C@@H]2C)cc1 ?
Reply: inactive

Query: Recorded call for COc1ccc(S(=O)(=O)N(C)C[C@H]2Oc3ccc(NC(=O)Nc4c(C)noc4C)cc3C(=O)N([C@@H](C)CO)C[C@@H]2C)cc1 ?
Reply: inactive

Query: Recorded call for CCCN(C)C[C@@H]1OCCCC[C@@H](C)Oc2ccc(NC(=O)CCCN(C)C)cc2C(=O)N([C@H](C)CO)C[C@@H]1C ?
Reply: inactive

Query: Recorded call for C[C@@H]1CN([C@H](C)CO)C(=O)c2cccc(NC(=O)Nc3ccc4c(c3)OCO4)c2O[C@H]1CN(C)C(=O)Nc1ccc(F)cc1 ?
Reply: inactive

Query: Recorded call for CCCN(C)C[C@H]1OCCCC[C@@H](C)Oc2ccc(N(C)C)cc2C(=O)N([C@H](C)CO)C[C@@H]1C ?
Reply: inactive

Query: Recorded call for C[C@H]1CN([C@@H](C)CO)C(=O)Cc2cc(NS(C)(=O)=O)ccc2O[C@@H]1CN(C)CC1CC1 ?
Reply: active

Query: Recorded call for COC(=O)c1sc(SC)c(-c2ccn(S(=O)(=O)c3ccc(Cl)cc3)n2)c1C ?
Reply: inactive

Query: Recorded call for Cc1cc(=O)oc2cc(OCc3cccc(F)c3)ccc12 ?
Reply: inactive

Query: Recorded call for O=C(O)CCC(=O)N(Cc1ccccc1)Cc1cn(-c2ccccc2)nc1-c1cccnc1 ?
Reply: inactive

---

Recorded inhibition, one value per entry.
Assay remarks: Shh-driven Gli reporter inhibition – luminescence, Shh-LIGHT2 cells, Gli-luciferase, primary screen (AID 2313);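 further: pathway switched on by Shh-conditioned medium diluted 1 in 25 in low serum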
Measurement setup: 30 h, active compounds read high
The whole screen tested about 22,000 compounds, of which about 460 (2.1%) were called active. Roughly 2% stayed inconclusive and do not appear here. The sample holds actives, similar compounds and a random draw of the others, so the mix is not that of the screen.

Here is how some compounds turned out for inhibition.
>>> assay_result("COc1ccc(S(=O)(=O)N(C)C[C@H]2Oc3c(NC(=O)Nc4ccc5c(c4)OCO5)cccc3C(=O)N([C@H](C)CO)C[C@@H]2C)cc1")
"18.1% (inactive)"
>>> assay_result("C[C@@H]1CN([C@H](C)CO)C(=O)c2cccc(NC(=O)c3nc4ccccc4s3)c2O[C@H]1CN(C)S(=O)(=O)c1ccc(Cl)cc1")
"11% (inactive)"
>>> assay_result("C[C@H](CO)N1C[C@H](C)[C@@H](CN(C)Cc2ccc(C(F)(F)F)cc2)Oc2c(NC(=O)NC3CCCCC3)cccc2C1=O")
"23.9% (inactive)"
>>> assay_result("Cc1ccc(NC(=O)C2C3C=CC(C3)C2C(=O)O)cc1 (stereo not drawn)")
"-27.3% (inactive)"
>>> assay_result("S=C(NCC1CC1)Nc1ccc(Cl)cc1")
"-35.4% (inactive)"
>>> assay_result("C[C@@H]1CN([C@@H](C)CO)C(=O)c2cccc(NC(=O)c3cnccn3)c2O[C@H]1CN(C)S(=O)(=O)c1cccs1")
"36.2% (inactive)"
>>> assay_result("O=C1c2ccccc2C(=O)N1CC1OCc2ccccc2CO1")
"-41.8% (inactive)"

Continue with the compound presented below.
Query: Look at this compound and give its reported inhibition. CNC[C@H]1Oc2ccc(NS(=O)(=O)c3ccc(F)cc3)cc2CC(=O)N([C@H](C)CO)C[C@H]1C
Reply: -2.19% (inactive)

src = PubChem BioAssay AID2313
